system: MCF7; test: NCI tumour cell line growth inhibition, 48 h
The source made the active and inactive calls. Rule as the data show it: active = GI50 up to about 1.1 µM and inactive = higher.
Permitted responses: label 1 (active), label 0 (inactive)

Recorded results for 7 compounds are shown here.
{"compound": "CN(C)CCNc1nc2ccccc2c2c1C(=O)c1ccccc1-2", "target under test": "MCF7", "qualitative label": "label 1"}
{"compound": "c1ccc2c(Cc3[nH]c4ccccc4c3Cc3c[nH]c4ccccc34)c[nH]c2c1", "target under test": "MCF7", "qualitative label": "label 0"}
{"compound": "CC(=O)c1ccc2c3c1O[C@H]1c4[nH]c5ccccc5c4C[C@@]4(O)[C@@H](C2)N(CC2CC2)CC[C@]314", "target under test": "MCF7", "qualitative label": "label 0"}
{"compound": "COC(=O)C1C(O)C(C)C(O)C(C)(O)C=C(C)C2=C3C(=C(C)C(=O)c4c(O)c(c(C)c(OC(C)=O)c43)NC(=O)C(C)=C/C=C\\C(C)(O)C(O)C(C)C1O)OCO2 (stereo not drawn)", "target under test": "MCF7", "qualitative label": "label 0"}
{"compound": "CC1CN(c2cc3c(cc2F)c(=O)c(C(=O)O)cn3-c2ccc(N3CCN(C)CC3)cn2)CC(C)N1 (stereo not drawn)", "target under test": "MCF7", "qualitative label": "label 0"}
{"compound": "CSC1=NC(=O)CCN1C1OCC(OC(C)=O)C(OC(C)=O)C1OC(C)=O (stereo not drawn)", "target under test": "MCF7", "qualitative label": "label 0"}
{"compound": "Fc1ccc(C(OCCN2CC3CCC(C2)N3CCCc2ccccc2)c2ccc(F)cc2)cc1", "target under test": "MCF7", "qualitative label": "label 0"}

[Q] Given N=C(N)NS(=O)(=O)c1ccc(NC(=O)c2c3ccccc3nc3ccccc23)cc1 , state the outcome it received in this test.
[A] label 0
